Target: Gal(b1-3)GlcNAc(b1-3)GalNAc
Experiment: glycan array binding signal (z-score within array); higher = stronger binding
Conditions: glycan notation: IUPAC condensed, linker removed
About 410 targets per protein were measured; listed, in parts, are those with the strongest signals and a random draw of the rest.
ATTRIBUTE_MEASURED: glycan array binding signal (z-score)
Returns: the value as a bare number; no unit string appended.

Query: Consider the binder DBA (Dolichos biflorus) (protein) ANIQSFSFKNFNSPSFILQGDATVSSGKLQLTKVKENGFPLRFPSGRAFYSSPIQIYDKFTGAVASWATSFTVKISAPSKASFADGIAFALVPVGSEPRRNGGYLGVFDSDVYNNSAQTVAVEFDTLSNSGWDPSMKHIGIDVNSIKSIATVSWDLANGENAEILITYNAATSLLVVSLVHPSRRTSYILSERVDITNELPEYVGVGFSATTGLSEGYIETHDVLSWSFASRLPDDSTAEPLDLARYLVRNVL and give its measured glycan array binding signal (z-score).
Response: -0.126

Query: Consider the binder Gal 8 (Homo sapiens), O00214_1 (protein) MMLSLNNLQNIIYNPVIPFVGTIPDQLDPGTLIVIRGHVPSDADRFQVDLQNGSSMKPRADVAFHFNPRFKRAGCIVCNTLINEKWGREEITYDTPFKREKSFEIVIMVLKDKFQVAVNGKHTLLYGHRIGPEKIDTLGIYGKVNIHSIGFSFSSDLQSTQASSLELTEISRENVPKSGTPQLRLPFAARLNTPMGPGRTVVVKGEVNANAKSFNVDLLAGKSKDIALHLNPRLNIKAFVRNSFLQESWGEEERNITSFPFSPGMYFEMIIYCDVREFKVAVNGVHSLEYKHRFKELSSIDTLEINGDIHLLEVRSW and give its measured glycan array binding signal (z-score).
Response: -0.235
